- experimental system: T1, polypeptide GC3pep (human)
- T1 construct: also called membrane proximal polypeptide GC3pep
- T1 peptide: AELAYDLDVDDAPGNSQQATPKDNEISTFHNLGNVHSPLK
- protocol text: ELISA, GC3pep coated, antibody 0.001 nM
metric name: OD450 nm (OD450 nm)
Write the number in OD450 nm without appending the unit.

Item F2.169.2 (antibody, human IgG1, kappa, V domains shown, human-murine chimeric antibody) VH: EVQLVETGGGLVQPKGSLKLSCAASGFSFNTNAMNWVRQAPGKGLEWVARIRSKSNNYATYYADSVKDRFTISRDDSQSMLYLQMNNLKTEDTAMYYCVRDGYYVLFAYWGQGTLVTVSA VL: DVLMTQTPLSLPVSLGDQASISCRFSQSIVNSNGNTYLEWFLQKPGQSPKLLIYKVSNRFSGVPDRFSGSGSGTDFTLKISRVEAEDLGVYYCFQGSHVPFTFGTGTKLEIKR has what recorded OD450 nm?
0.06

Attribution: patent US20260116991A1
